Tested on: DU145
experiment notes: Euclidean distance of Cell Painting phenotypic profile (signed KS, 77 features) to DMSO centroid (dimensionless distance); 5 or 10 uM (library dependent); higher = stronger phenotypic change vs DMSO (phenoactivity)
conditions: 48 h
Structures can show the parent of a compound that is named as a salt.
readout: Euclidean distance
I'd appreciate a reply containing only the number, no unit.

Value of measured Euclidean distance for the entry CCCN1CCCC[C@H]1C(=O)Nc1c(C)cccc1C [Ropivacaine HCl] : 0.895

Value of measured Euclidean distance for the entry COc1cc(Nc2ncc3c(n2)-c2ccc(Cl)cc2C(c2c(F)cccc2OC)=NC3)ccc1C(=O)O : 2.99

Value of measured Euclidean distance for the entry Cc1ccc(NC(=O)c2ccc(CN3CCN(C)CC3)cc2)cc1Nc1nccc(-c2cccnc2)n1 [Imatinib Mesylate (STI571)] : 1.67

Value of measured Euclidean distance for the entry Cc1cc(C)nc(NS(=O)(=O)c2ccc(N)cc2)n1 [Sulfamethazine Sodium Salt] : 0.732

Value of measured Euclidean distance for the entry COc1nccnc1NS(=O)(=O)c1ccc(N)cc1 [Sulfalene(SMPZ)] : 1.18

Value of measured Euclidean distance for the entry N#CSc1cc(SC#N)c(N)nc1N : 0.906

Value of measured Euclidean distance for the entry C=C(c1ccc(C(=O)O)cc1)c1cc2c(cc1C)C(C)(C)CCC2(C)C : 1.58

Value of measured Euclidean distance for the entry Cc1cccc(C)c1OCC(=O)N[C@@H](Cc1ccccc1)[C@@H](O)C[C@H](Cc1ccccc1)NC(=O)[C@H](C(C)C)N1CCCNC1=O : 1.44
